# Tested on: SNB-19 CNS
# assay_explanation: NCI-60 one-dose screen, 48 h (100 = growth as untreated, 0 = no growth, -100 = all killed)
# condition_details: 10 µM unless noted
About 83,000 compounds went through this panel and 20% of them were active in at least one assay; those are over-represented in the sample as a whole. Calls of active or inactive are those of the source. Rule for the calls: active = growth percent below 10; inactive = the rest.
Below is a list of entries, each paired with its recorded growth value.

[
  {
    "compound": "N#CCCN1C(=O)CCC1C(=O)O (configuration not stated)",
    "growth": "101% (inactive)"
  },
  {
    "compound": "CCCC1OC(c2ccco2)OCC1CC (configuration not stated)",
    "growth": "98.2% (inactive)"
  },
  {
    "compound": "CCCCCC(=O)OCCC1CCCCC1",
    "growth": "112% (inactive)"
  },
  {
    "compound": "COc1ccc(Nc2cc(Cl)ccc2C(=O)O)cn1",
    "growth": "96.5% (inactive)"
  },
  {
    "compound": "CC(O)C(F)(F)C(F)(F)C(F)(F)F (configuration not stated)",
    "growth": "112% (inactive)"
  },
  {
    "compound": "COC1OC(C(O)C(O)CO)C(O)C(O)C1O (configuration not stated)",
    "growth": "105% (inactive)"
  },
  {
    "compound": "Nc1ccn(C2CC(N)C(CO)O2)c(=O)n1 (configuration not stated)",
    "growth": "68.2% (inactive)"
  }
]

====

# Tested on: CAKI-1 renal
# assay_explanation: NCI-60 one-dose screen, 48 h (100 = growth as untreated, 0 = no growth, -100 = all killed)
# condition_details: 10 µM unless noted
The panel holds about 83,000 compounds, 20% with a hit somewhere; the sample as a whole holds those more often.

[
  {
    "compound": "S=c1nc2[nH]c3ccccc3c2n[nH]1",
    "scale_unit": "%",
    "growth": 88.9
  },
  {
    "compound": "COc1cc(OC)c(NC(=O)C(Sc2nc(C)cc(C)c2C#N)c2ccccc2)cc1Cl (configuration not stated)",
    "scale_unit": "%",
    "growth": 94.6
  },
  {
    "compound": "Cc1cc2c3ccc(C)[n+](C)c3ccc2n1C",
    "scale_unit": "%",
    "growth": 58.1
  },
  {
    "compound": "NNc1ncnc2nc[nH]c12",
    "scale_unit": "%",
    "growth": 42.3
  },
  {
    "compound": "Cc1ccc(NC(=O)c2ccccc2Cl)cc1",
    "scale_unit": "%",
    "growth": 107
  },
  {
    "compound": "COc1ccc(Br)c(C=O)c1",
    "scale_unit": "%",
    "growth": 63.9
  },
  {
    "compound": "O=S(=O)(O)C(C(I)I)S(=O)(=O)O",
    "scale_unit": "%",
    "growth": 100
  }
]

====

# System: NCI-H460 lung
# assay_explanation: NCI-60 one-dose screen, 48 h (100 = growth as untreated, 0 = no growth, -100 = all killed)
# condition_details: 10 µM unless noted
About 83,000 compounds went through this panel and 20% of them were active in at least one assay; those are over-represented in the sample as a whole.
# key: entry, value: growth

[
  {
    "compound": "CC(=O)OCC1CCC(COC(C)=O)CC1 (stereo not drawn)",
    "scale_unit": "%",
    "growth": 110
  },
  {
    "compound": "COc1ccc(C(=O)/C(=N/Nc2ccccc2)c2ccc(OC)cc2)cc1",
    "scale_unit": "%",
    "growth": 94.1
  },
  {
    "compound": "CCC(=O)C1C(=O)c2ccccc2C1=O",
    "scale_unit": "%",
    "growth": 115
  },
  {
    "compound": "COC(=O)c1cccc([N+](=O)[O-])c1",
    "scale_unit": "%",
    "growth": 108
  },
  {
    "compound": "CCCCCCCCCCCCCCCCCCSC(=N)N",
    "scale_unit": "%",
    "growth": 52.7
  },
  {
    "compound": "COc1ccc(Br)c2c1C(=O)CC2",
    "scale_unit": "%",
    "growth": 110
  },
  {
    "compound": "C=C1CC2(OC1=O)C(=O)N(C)c1ccc(I)cc12 (stereo not drawn)",
    "scale_unit": "%",
    "growth": -57
  },
  {
    "compound": "CN(C)c1ncnc2c1cnn2C",
    "scale_unit": "%",
    "growth": 103
  },
  {
    "compound": "Cc1cc2nc(C)c(C)nc2cc1C",
    "scale_unit": "%",
    "growth": 101
  },
  {
    "compound": "C/C=C/C1OCC(CC)C(CCC)O1 (stereo not drawn)",
    "scale_unit": "%",
    "growth": 109
  },
  {
    "compound": "O=CNCCc1ccccc1",
    "scale_unit": "%",
    "growth": 111
  },
  {
    "compound": "O=C(O)c1c[nH]c2ccccc2c1=O",
    "scale_unit": "%",
    "growth": 105
  },
  {
    "compound": "O=C(O)c1ccc([N+](=O)[O-])cc1S(=O)(=O)O",
    "scale_unit": "%",
    "growth": 105
  },
  {
    "compound": "N#CC1(O)CCCCC1",
    "scale_unit": "%",
    "growth": 107
  },
  {
    "compound": "CN(C)c1ccc2c(N(C)C)cc(N(C)C)nc2c1",
    "scale_unit": "%",
    "growth": 82.7
  },
  {
    "compound": "CC(O)C(F)(F)C(F)(F)C(F)(F)F (stereo not drawn)",
    "scale_unit": "%",
    "growth": 110
  },
  {
    "compound": "CCNc1ncnc2[nH]ncc12",
    "scale_unit": "%",
    "growth": 106
  },
  {
    "compound": "CCN(CC)c1ccc2nc3ccc(N=Nc4ccc(N(C)C)cc4)cc3[n+](-c3ccccc3)c2c1",
    "scale_unit": "%",
    "growth": -66.4
  },
  {
    "compound": "CC1CC2C3CCC4=CC(=O)CCC4(C)C3CCC2(C)C1(O)C(=O)CO (stereo not drawn)",
    "scale_unit": "%",
    "growth": 117
  },
  {
    "compound": "C=COC(=O)C(C)(C)C",
    "scale_unit": "%",
    "growth": 104
  },
  {
    "compound": "COC(=O)C1=C(C)C(=O)CC1",
    "scale_unit": "%",
    "growth": 118
  },
  {
    "compound": "O=C(O)Cc1ccccn1",
    "scale_unit": "%",
    "growth": 108
  },
  {
    "compound": "CSCC[C@@H]1C(=O)N(C)[C@H](C(C)(C)C)N1C(=O)c1ccccc1",
    "scale_unit": "%",
    "growth": 112
  },
  {
    "compound": "CCOc1ccc(C(=O)O)cc1",
    "scale_unit": "%",
    "growth": 103
  },
  {
    "compound": "C[n+]1c(/C=C\\C=C\\N2CCCCC2)sc2ccccc21",
    "scale_unit": "%",
    "growth": 0.479
  },
  {
    "compound": "Cc1ccc(S(=O)(=O)NC(=O)NCCSSCCNC(=O)NS(=O)(=O)c2ccc(C)cc2)cc1",
    "scale_unit": "%",
    "growth": 103
  },
  {
    "compound": "Cc1cc(C(=O)c2ccccc2)cc(C)c1O",
    "scale_unit": "%",
    "growth": 110
  },
  {
    "compound": "CC(C)OCC(CCl)OC(=O)Nc1ccccc1 (stereo not drawn)",
    "scale_unit": "%",
    "growth": 105
  }
]

====

# System: HOP-62 NSCLC
# assay_explanation: NCI-60 one-dose screen, 48 h (100 = growth as untreated, 0 = no growth, -100 = all killed)
# condition_details: 10 µM unless noted
This is part of a sample that, as a whole, favours compounds with a hit. Of some 83,000 tested, about 20% had one in any assay.

[
  {
    "compound": "Oc1ccc(CCC2CCNc3ccccc32)cc1 (stereo not drawn)",
    "growth [%]": 75.8
  },
  {
    "compound": "NCCCN1CCCC1=O",
    "growth [%]": 112
  },
  {
    "compound": "CC(=O)C[n+]1ccc(C)cc1Sc1ccccc1C",
    "growth [%]": 99.1
  },
  {
    "compound": "O=C1Nc2ccccc2/C1=C\\c1ccccc1O",
    "growth [%]": 87.9
  },
  {
    "compound": "COC1=C(OC)C(=O)C(SC/C=C(\\C)CCCC(C)CCCC(C)CCCC(C)C)=CC1=O (stereo not drawn)",
    "growth [%]": 38.3
  },
  {
    "compound": "CC(CC(CCC(=O)O)(c1ccccc1)c1ccccc1)N(C)C (stereo not drawn)",
    "growth [%]": 96.6
  },
  {
    "compound": "Cc1ccc(C)c2c1CCC2=O",
    "growth [%]": 93.2
  },
  {
    "compound": "Cc1cc(Cl)cc(Cc2cc(Cl)cc(C)c2O)c1O",
    "growth [%]": 56.8
  },
  {
    "compound": "COc1cc(-c2ccc(NC(=O)CC(C)=O)c(OC)c2)ccc1NC(=O)CC(C)=O",
    "growth [%]": 98
  },
  {
    "compound": "S=CN1CCCCC1",
    "growth [%]": 108
  },
  {
    "compound": "Cc1ccc(S(=O)(=O)CCCl)cc1",
    "growth [%]": 112
  },
  {
    "compound": "Nc1ccccc1SC1CC(=O)N(c2ccc(Cl)c(Cl)c2)C1=O (stereo not drawn)",
    "growth [%]": 96.6
  },
  {
    "compound": "CC(=O)OC/C(C)=C\\CC(C)COC(C)=O (stereo not drawn)",
    "growth [%]": 96.9
  }
]
